Test system: K562
Protocol Details: Cytotoxicity against human imatinib-resistant K562 leukemia cells expressing p210Bcr/Abl and MDR1 at 48 hrs by MTT assay
Assay type: functional, cell-based
Test Parameters: K562, 48 h
Readout Label: pIC50
Give bare numbers, as −log10 of the molar value.

As a guide, the following entries are already answered.
>  <Molecule Smiles>
COc1cc2c3cc1Oc1c(OC)c(OC)cc4c1[C@@H](Cc1ccc(OC(=O)c5cccc(CCl)c5)c(c1)Oc1ccc(cc1)C[C@@H]3N(C)CC2)N(C)CC4

>  <pIC50>
6.30

$$$$
>  <Molecule Smiles>
COc1cc2c3cc1Oc1c(OC)c(OC)cc4c1[C@@H](Cc1ccc(OC(=O)c5cc(OC)c(OC)c(OC)c5)c(c1)Oc1ccc(cc1)C[C@@H]3N(C)CC2)N(C)CC4

>  <pIC50>
6.16

$$$$
>  <Molecule Smiles>
COc1cc2c3cc1Oc1c(OC)c(OC)cc4c1[C@@H](Cc1ccc(OS(=O)(=O)c5ccccc5)c(c1)Oc1ccc(cc1)C[C@@H]3N(C)CC2)N(C)CC4

>  <pIC50>
5.70

$$$$

Please state pIC50 for every molecule in the list that follows.
1. COc1cc2c3cc1Oc1c(OC)c(OC)cc4c1[C@@H](Cc1ccc(OC(=O)c5cc([N+](=O)[O-])cc([N+](=O)[O-])c5)c(c1)Oc1ccc(cc1)C[C@@H]3N(C)CC2)N(C)CC4
2. COc1cc2c3cc1Oc1c(OC)c(OC)cc4c1[C@@H](Cc1ccc(OS(C)(=O)=O)c(c1)Oc1ccc(cc1)C[C@@H]3N(C)CC2)N(C)CC4
3. COc1cc2c3cc1Oc1c(OC)c(OC)cc4c1[C@@H](Cc1ccc(OCCCBr)c(c1)Oc1ccc(cc1)C[C@@H]3N(C)CC2)N(C)CC4

// result
5.43
5.32
5.78
